Catalogue of Papp A→B at up to 20 µM values
Experiment: Apparent permeability across apical to basolateral side in human Caco2 cells at 1 to 20 uM by LC-MS/MS analysis
Type: ADME, cell-based
Details: Caco-2
Just the number please, in ×10⁻⁶ cm/s, no unit attached.

Lookup: For Cn1nnc(-c2ccc3c(c2)c(C2CCN(CCN4CCNC4=O)CC2)cn3-c2ccc(F)cc2)n1 , what is its reported Papp A→B at up to 20 µM?
Found: 12

Lookup: For Cn1cc(-c2ccc3c(c2)c(C2CCN(CCN4CCNC4=O)CC2)cn3-c2ccc(F)cc2)nn1 , what is its reported Papp A→B at up to 20 µM?
Found: 5

Lookup: For CCN1CCC[C@H]1CNC(=O)c1c(O)c(Cl)cc(Cl)c1OC [RACLOPRIDE] , what is its reported Papp A→B at up to 20 µM?
Found: 66

Lookup: For COc1ccccc1N1CCN(CCN(C(=O)C2CCCCC2)c2ccccn2)CC1 , what is its reported Papp A→B at up to 20 µM?
Found: 38

---

Test: Ratio of drug level in brain to plasma at steady state in rat at 1000 ng/g after 5 hrs
Type: ADME, cell-free
Conditions: brain and plasma, read-out: BPR
Cut-off 9 on Kp at 5 h, 1000 ng/g: below means TRUE, at or above means FALSE.

Known results for compounds:
Compound: COc1ccccc1N1CCN(CCN(C(=O)C2CCCCC2)c2ccccn2)CC1
Group: TRUE
//
Compound: CN1CCC(c2cn(-c3ccc(F)cc3)c3ccc(-c4ncn(C)n4)cc23)CC1
Group: FALSE
//
Compound: Cn1nnc(-c2ccc3c(c2)c(C2CCN(CCN4CCNC4=O)CC2)cn3-c2ccc(F)cc2)n1
Group: TRUE
//
Compound: CCN1CCC[C@H]1CNC(=O)c1c(O)c(Cl)cc(Cl)c1OC [RACLOPRIDE]
Group: TRUE

As a next step, examine the compound that follows.
Lookup: Does this compound meet the criterion Kp at 5 h, 1000 ng/g < 9? CN1CCC(c2cn(-c3ccc(F)cc3)c3ccc(-c4cncnc4)cc23)CC1
Found: FALSE

---

Target: Alpha-1B adrenergic receptor (Mesocricetus auratus, UniProt P18841)
Sequence (P18841 whole entry): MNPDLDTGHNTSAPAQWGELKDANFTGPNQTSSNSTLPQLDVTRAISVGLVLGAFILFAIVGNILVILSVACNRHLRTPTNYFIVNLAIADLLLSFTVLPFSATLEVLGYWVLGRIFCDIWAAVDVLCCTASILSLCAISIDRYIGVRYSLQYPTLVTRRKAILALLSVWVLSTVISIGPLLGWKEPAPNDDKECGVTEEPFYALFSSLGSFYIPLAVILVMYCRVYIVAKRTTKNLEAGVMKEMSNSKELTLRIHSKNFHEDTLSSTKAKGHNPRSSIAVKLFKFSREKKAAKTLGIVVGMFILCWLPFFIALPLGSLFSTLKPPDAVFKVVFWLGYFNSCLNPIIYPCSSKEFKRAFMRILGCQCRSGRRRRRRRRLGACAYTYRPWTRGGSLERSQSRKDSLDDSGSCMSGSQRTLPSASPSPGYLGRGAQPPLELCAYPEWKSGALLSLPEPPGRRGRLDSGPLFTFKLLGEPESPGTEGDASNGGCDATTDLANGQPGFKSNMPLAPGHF
Assay: Displacement of [3H]prazosine from hamster alpha1B adrenoceptor expressed in Rat1 cells after 20 mins by scintillation counting analysis
Format: cell-based
Assay readout: Ki (nM)
Just the number please, in nM, no unit attached.

Lookup: For CN1CCC(c2cn(-c3ccc(F)cc3)c3ccc(-c4ncn(C)n4)cc23)CC1 , what is its reported Ki?
Found: 6.4

---

Assay: Apparent permeability across apical to basolateral side in human Caco2 cells at 20 uM by LC-MS/MS analysis
Assay type: ADME, cell-based
Settings: Caco-2
Catalogue of Papp A→B at 20 µM values
Just the number please, in ×10⁻⁶ cm/s, no unit attached.

Molecule smiles: CN1CCC(c2cn(-c3ccc(F)cc3)c3ccc(-c4ncn(C)n4)cc23)CC1
Papp A→B at 20 µM [×10⁻⁶ cm/s]: 18

// next entry
Lookup: For CN1CCC(c2cn(-c3ccc(F)cc3)c3ccc(-c4cncnc4)cc23)CC1 , what is its reported Papp A→B at 20 µM?
Found: 13

---

Experiment: Unbound fraction in rat plasma at 1000 ng/g after 5 hrs by equilibrium dialysis method
Type: ADME, cell-free
Assay readout: fraction unbound at 5 h, 1000 ng/g
Write the number on its own, no unit after it.

Example entries and their recorded answers appear below.
Molecule: COc1ccccc1N1CCN(CCN(C(=O)C2CCCCC2)c2ccccn2)CC1
fraction unbound at 5 h, 1000 ng/g: 0.1
--
Molecule: CCN1CCC[C@H]1CNC(=O)c1c(O)c(Cl)cc(Cl)c1OC [RACLOPRIDE]
fraction unbound at 5 h, 1000 ng/g: 0.27

// next entry
Lookup: For Cn1cc(-c2ccc3c(c2)c(C2CCN(CCN4CCNC4=O)CC2)cn3-c2ccc(F)cc2)nn1 , what is its reported fraction unbound at 5 h, 1000 ng/g?
Found: 0.072
